test: Growth inhibition of human SF268 cells assessed as cell growth at 10^-5 M incubated for 48 hrs by sulforhodamine B assay; assay type: functional; settings: SF-268, 48 h, read-out: Activity
Please go through the items and note down their growth at 10 µM.

Reference set (3 entries):
- c1ccc(-c2nc(Nc3ccc(-c4nc5ccccc5[nH]4)cc3)nc(N3CCOCC3)n2)cc1: -83%
- Clc1ccc(-c2nc(Nc3ccc(-c4nc5ccccc5[nH]4)cc3)nc(N3CCOCC3)n2)cc1: -80%
- c1ccc2[nH]c(-c3ccc(Nc4nc(N5CCCCC5)nc(N5CCOCC5)n4)cc3)nc2c1: 5%

Now consider a different molecule.
Which growth at 10 µM reading was recorded for the molecule Fc1ccc(-c2nc(Nc3ccc(-c4nc5ccccc5[nH]4)cc3)nc(N3CCOCC3)n2)cc1 ? 3%

* * *

test system: U-251; experiment: Growth inhibition of human U251 cells incubated for 48 hrs by sulforhodamine B assay; type: functional; settings: U-251, 48 h, read-out: pTGI (converted)
Please go through the items and note down their TGI.
Numbers only, in µM.

Reference set (2 entries):
• Clc1ccc(-c2nc(Nc3ccc(-c4nc5ccccc5[nH]4)cc3)nc(N3CCOCC3)n2)cc1 = 0.447
• c1ccc2[nH]c(-c3ccc(Nc4nc(N5CCCCC5)nc(N5CCOCC5)n4)cc3)nc2c1 = 10

State recorded TGI for all listed compounds.
1. Fc1ccc(-c2nc(Nc3ccc(-c4nc5ccccc5[nH]4)cc3)nc(N3CCOCC3)n2)cc1
2. c1ccc(-c2nc(Nc3ccc(-c4nc5ccccc5[nH]4)cc3)nc(N3CCOCC3)n2)cc1

1: 13.5; 2: 1.78

* * *

Please go through the items and note down their growth at 100 µM.
experiment: Growth inhibition of human OVCAR3 cells assessed as cell growth at 10^-4 M incubated for 48 hrs by sulforhodamine B assay; type: functional; conditions: OVCAR-3, 48 h, read-out: Activity
One number for each entry, in %.

Reference set (3 entries):
* Clc1ccc(-c2nc(Nc3ccc(-c4nc5ccccc5[nH]4)cc3)nc(N3CCOCC3)n2)cc1 | -71
* Fc1ccc(-c2nc(Nc3ccc(-c4nc5ccccc5[nH]4)cc3)nc(N3CCOCC3)n2)cc1 | -45
* c1ccc2[nH]c(-c3ccc(Nc4nc(N5CCCCC5)nc(N5CCOCC5)n4)cc3)nc2c1 | -49

Now consider a different compound.
Which growth at 100 µM reading was recorded for the compound c1ccc(-c2nc(Nc3ccc(-c4nc5ccccc5[nH]4)cc3)nc(N3CCOCC3)n2)cc1 ? -100

* * *

tested on: KM12; test: Growth inhibition of human KM12 cells incubated for 48 hrs by sulforhodamine B assay; type: functional; conditions: KM12, 48 h, read-out: pGI50 (converted)
measured-parameter: GI50 (nM)
Answers are plain numbers, in nM.

Reference set (3 entries):
• Fc1ccc(-c2nc(Nc3ccc(-c4nc5ccccc5[nH]4)cc3)nc(N3CCOCC3)n2)cc1 = 2040
• c1ccc2[nH]c(-c3ccc(Nc4nc(N5CCCCC5)nc(N5CCOCC5)n4)cc3)nc2c1 = 2820
• Clc1ccc(-c2nc(Nc3ccc(-c4nc5ccccc5[nH]4)cc3)nc(N3CCOCC3)n2)cc1 = 372

Now consider a different molecule.
Which GI50 reading was recorded for the molecule c1ccc(-c2nc(Nc3ccc(-c4nc5ccccc5[nH]4)cc3)nc(N3CCOCC3)n2)cc1 ? 1620

* * *

assay: Growth inhibition of human Hs 578T cells incubated for 48 hrs by sulforhodamine B assay; type: functional; settings: read-out: pGI50 (converted)
measured-parameter: GI50 (nM)
Answers are plain numbers, in nM.

State recorded GI50 for all listed molecules.
1. Clc1ccc(-c2nc(Nc3ccc(-c4nc5ccccc5[nH]4)cc3)nc(N3CCOCC3)n2)cc1
2. Fc1ccc(-c2nc(Nc3ccc(-c4nc5ccccc5[nH]4)cc3)nc(N3CCOCC3)n2)cc1
3. c1ccc2[nH]c(-c3ccc(Nc4nc(N5CCCCC5)nc(N5CCOCC5)n4)cc3)nc2c1
4. c1ccc(-c2nc(Nc3ccc(-c4nc5ccccc5[nH]4)cc3)nc(N3CCOCC3)n2)cc1

1. 708
2. 1780
3. 2570
4. 1910

* * *

assay: Growth inhibition of human SNB75 cells incubated for 48 hrs by sulforhodamine B assay; assay type: functional; details: SNB-75, 48 h, read-out: GI50
measured-parameter: GI50
# answer = value followed by unit

State recorded GI50 for all listed compounds.
1. Fc1ccc(-c2nc(Nc3ccc(-c4nc5ccccc5[nH]4)cc3)nc(N3CCOCC3)n2)cc1
2. c1ccc(-c2nc(Nc3ccc(-c4nc5ccccc5[nH]4)cc3)nc(N3CCOCC3)n2)cc1
3. c1ccc2[nH]c(-c3ccc(Nc4nc(N5CCCCC5)nc(N5CCOCC5)n4)cc3)nc2c1

1. 1800 nM
2. 1640 nM
3. 2100 nM

Which GI50 reading was recorded for the compound Clc1ccc(-c2nc(Nc3ccc(-c4nc5ccccc5[nH]4)cc3)nc(N3CCOCC3)n2)cc1 ? 1750 nM

* * *

test: Growth inhibition of human HOP92 cells incubated for 48 hrs by sulforhodamine B assay; format: functional; conditions: HOP-92, 48 h, read-out: pTGI (converted)
Please go through the items and note down their TGI.

* Fc1ccc(-c2nc(Nc3ccc(-c4nc5ccccc5[nH]4)cc3)nc(N3CCOCC3)n2)cc1 | 3.72 µM

State recorded TGI for all listed molecules.
1. c1ccc(-c2nc(Nc3ccc(-c4nc5ccccc5[nH]4)cc3)nc(N3CCOCC3)n2)cc1
2. c1ccc2[nH]c(-c3ccc(Nc4nc(N5CCCCC5)nc(N5CCOCC5)n4)cc3)nc2c1

["3.02 µM", "4.37 µM"]

Which TGI reading was recorded for the molecule Clc1ccc(-c2nc(Nc3ccc(-c4nc5ccccc5[nH]4)cc3)nc(N3CCOCC3)n2)cc1 ? 2.69 µM

* * *

test: Growth inhibition of human HCT15 cells incubated for 48 hrs by sulforhodamine B assay; assay type: functional; details: HCT-15, 48 h, read-out: GI50
Please go through the items and note down their GI50.
Numbers only, in nM.

* c1ccc2[nH]c(-c3ccc(Nc4nc(N5CCCCC5)nc(N5CCOCC5)n4)cc3)nc2c1 | 1880
* Clc1ccc(-c2nc(Nc3ccc(-c4nc5ccccc5[nH]4)cc3)nc(N3CCOCC3)n2)cc1 | 188
* Fc1ccc(-c2nc(Nc3ccc(-c4nc5ccccc5[nH]4)cc3)nc(N3CCOCC3)n2)cc1 | 1670

Which GI50 reading was recorded for the compound c1ccc(-c2nc(Nc3ccc(-c4nc5ccccc5[nH]4)cc3)nc(N3CCOCC3)n2)cc1 ? 343

* * *

system: SR; experiment: Growth inhibition of human SR cells assessed as cell growth at 10^-4 M incubated for 48 hrs by sulforhodamine B assay; format: functional; settings: read-out: Activity
measured-parameter: growth at 100 µM (%)
Give bare numbers, in %.

State recorded growth at 100 µM for all listed compounds.
1. Clc1ccc(-c2nc(Nc3ccc(-c4nc5ccccc5[nH]4)cc3)nc(N3CCOCC3)n2)cc1
2. Fc1ccc(-c2nc(Nc3ccc(-c4nc5ccccc5[nH]4)cc3)nc(N3CCOCC3)n2)cc1
3. c1ccc2[nH]c(-c3ccc(Nc4nc(N5CCCCC5)nc(N5CCOCC5)n4)cc3)nc2c1
4. c1ccc(-c2nc(Nc3ccc(-c4nc5ccccc5[nH]4)cc3)nc(N3CCOCC3)n2)cc1

1: 5; 2: 1; 3: -11; 4: -28

* * *

target: Albumin (Bos taurus, UniProt P02769); experiment: Binding affinity to bovine serum albumin assessed as hyperchromicity in absorption spectra up to 20 uM after 5 mins by UV-visible spectroscopic analysis relative to control; type: ADME; conditions: cattle, isolated protein
Sequence (P02769 whole entry): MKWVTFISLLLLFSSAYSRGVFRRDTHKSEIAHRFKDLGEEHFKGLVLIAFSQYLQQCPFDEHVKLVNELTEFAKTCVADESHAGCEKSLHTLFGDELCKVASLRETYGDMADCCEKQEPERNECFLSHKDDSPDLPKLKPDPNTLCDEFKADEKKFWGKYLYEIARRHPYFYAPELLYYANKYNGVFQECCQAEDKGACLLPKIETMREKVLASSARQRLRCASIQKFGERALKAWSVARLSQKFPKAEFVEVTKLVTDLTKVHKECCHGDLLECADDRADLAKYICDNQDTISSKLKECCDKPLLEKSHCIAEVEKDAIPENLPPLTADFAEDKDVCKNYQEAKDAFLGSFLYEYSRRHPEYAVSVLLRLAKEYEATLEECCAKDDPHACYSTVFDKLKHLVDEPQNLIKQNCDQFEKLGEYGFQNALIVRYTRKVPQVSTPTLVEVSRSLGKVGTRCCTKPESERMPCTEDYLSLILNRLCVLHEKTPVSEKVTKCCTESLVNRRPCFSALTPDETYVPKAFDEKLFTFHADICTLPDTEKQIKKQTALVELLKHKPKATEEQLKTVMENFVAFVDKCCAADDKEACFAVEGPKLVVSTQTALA
measured-parameter: Activity (%)
One number for each entry, in %.

• c1ccc(-c2nc(Nc3ccc(-c4nc5ccccc5[nH]4)cc3)nc(N3CCOCC3)n2)cc1 = 72.27

State recorded Activity for all listed molecules.
1. c1ccc2[nH]c(-c3ccc(Nc4nc(N5CCCCC5)nc(N5CCOCC5)n4)cc3)nc2c1
2. OCCN1CCN(c2nc(Nc3ccc(-c4nc5ccccc5[nH]4)cc3)nc(N3CCOCC3)n2)CC1
3. c1ccc2[nH]c(-c3ccc(Nc4nc(NC5CCCCC5)nc(N5CCOCC5)n4)cc3)nc2c1
4. Fc1ccc(-c2nc(Nc3ccc(-c4nc5ccccc5[nH]4)cc3)nc(N3CCOCC3)n2)cc1
5. c1ccc2[nH]c(-c3ccc(Nc4nc(N5CCOCC5)nc(N5CCOCC5)n4)cc3)nc2c1
6. c1ccc(CNc2nc(Nc3ccc(-c4nc5ccccc5[nH]4)cc3)nc(N3CCOCC3)n2)cc1
7. CN1CCN(c2nc(Nc3ccc(-c4nc5ccccc5[nH]4)cc3)nc(N3CCOCC3)n2)CC1

72.31
68.72
85.87
86.8
72.93
88.44
75.98

* * *

experiment: Growth inhibition of human LOXIMVI cells assessed as cell growth at 10^-4 M incubated for 48 hrs by sulforhodamine B assay; format: functional; details: LOX IMVI, read-out: Activity
measured-parameter: growth at 100 µM (%)
One number for each entry, in %.

* c1ccc2[nH]c(-c3ccc(Nc4nc(N5CCCCC5)nc(N5CCOCC5)n4)cc3)nc2c1 | -65
* Clc1ccc(-c2nc(Nc3ccc(-c4nc5ccccc5[nH]4)cc3)nc(N3CCOCC3)n2)cc1 | 2
* Fc1ccc(-c2nc(Nc3ccc(-c4nc5ccccc5[nH]4)cc3)nc(N3CCOCC3)n2)cc1 | -49

Which growth at 100 µM reading was recorded for the molecule c1ccc(-c2nc(Nc3ccc(-c4nc5ccccc5[nH]4)cc3)nc(N3CCOCC3)n2)cc1 ? -45
